Biological target: Falcipain 2 (Plasmodium falciparum, UniProt Q9N6S8)
Sequence (Q9N6S8 whole entry): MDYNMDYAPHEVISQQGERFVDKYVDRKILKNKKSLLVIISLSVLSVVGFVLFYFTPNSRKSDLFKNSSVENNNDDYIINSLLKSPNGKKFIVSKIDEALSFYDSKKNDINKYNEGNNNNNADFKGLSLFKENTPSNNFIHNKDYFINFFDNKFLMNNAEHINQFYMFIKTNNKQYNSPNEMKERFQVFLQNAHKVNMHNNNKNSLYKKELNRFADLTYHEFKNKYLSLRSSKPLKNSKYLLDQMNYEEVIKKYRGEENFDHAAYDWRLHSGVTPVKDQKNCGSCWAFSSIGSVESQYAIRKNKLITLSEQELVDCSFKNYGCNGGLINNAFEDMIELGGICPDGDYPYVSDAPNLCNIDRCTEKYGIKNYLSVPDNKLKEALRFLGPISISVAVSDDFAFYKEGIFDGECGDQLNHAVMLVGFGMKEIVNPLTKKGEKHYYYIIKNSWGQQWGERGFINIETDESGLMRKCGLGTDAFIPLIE
Experiment: Inhibition of Plasmodium falciparum recombinant falcipain-2
pIC50: −log10 of the molar value.
Recorded pIC50 values for a group of molecules are listed next.

Examples with their reported pIC50 follow.
| Smi | Target Under Test | Property | Reported Result |
| --- | --- | --- | --- |
| O=C(NCCNc1ccnc2cc(Cl)ccc12)N/N=C/c1ccc(O)c(CN2CCOCC2)c1O | Falcipain 2 (Plasmodium falciparum, UniProt Q9N6S8) | pIC50 | < 4.70 |
| NC(=S)N/N=C/c1ccc(O)c(CN2CCOCC2)c1O | Falcipain 2 (Plasmodium falciparum, UniProt Q9N6S8) | pIC50 | < 4.70 |
| O=Cc1ccc(O)c(CN2CCCC2)c1O | Falcipain 2 (Plasmodium falciparum, UniProt Q9N6S8) | pIC50 | < 4.70 |
| O=Cc1ccc(O)c(CN2CCOCC2)c1O | Falcipain 2 (Plasmodium falciparum, UniProt Q9N6S8) | pIC50 | < 4.70 |
| CCN(CC)Cc1c(O)ccc(/C=N/NC(N)=S)c1O | Falcipain 2 (Plasmodium falciparum, UniProt Q9N6S8) | pIC50 | 4.96 |

Now let's try a different one.
Reported pIC50, molecule CN1CCN(Cc2c(O)ccc(C=O)c2O)CC1 : ____ < 4.70
